System: HL-60(TB) leukemia
Assay: NCI-60 one-dose screen, 48 h (100 = growth as untreated, 0 = no growth, -100 = all killed)
Details: 10 µM unless noted
Procedure: Growth inhibition of the HL-60(TB) human tumor cell line is measured as a screen for anti-cancer activity. Cells are grown in 96 well plates and exposed to the test compound for 48 hours. Compounds are tested at a single concentration, which is 10^-5 M for most compounds. The reported endpoint is percent growth (GI% or GIPRCNT), where numbers from 0 - 100% represent growth inhibition, and numbers from -100% - 0 represent cell death. For example, a value of 40 represents 60% growth inhibition. […]
The panel holds about 83,000 compounds, 20% with a hit somewhere; the sample as a whole holds those more often.
Would you kindly list growth for each of these molecules?
Kindly provide the numeric value in % only, without the unit symbol.

[Q] I would be grateful if you could share the reported growth for N#CCCCCCCCCCCC#N .
[A] 98.7

[Q] What does the record list as growth for O=S=Nc1ccc([N+](=O)[O-])cc1 ?
[A] 102

[Q] Dear colleague, I am looking for the recorded growth of the following molecule: CCCCCCCCCCC/C=C\C[C@H](O)C/C=C1/C(=O)C=C[C@@H]1C/C=C\CCCC(=O)OC
[A] -20

[Q] Which measured growth value corresponds to COc1ccc(NC(=O)CSc2nc3ccccc3c(=O)n2-c2ccccc2C(F)(F)F)c(OC)c1OC ?
[A] 103

[Q] Bench note: what growth did Cc1cc(NCc2cc(Nc3ccnc4cc(Cl)ccc34)ccc2F)nc(N2CCN(C)CC2)n1 show?
[A] -46.6

[Q] Endpoint output: growth of CC(=O)C[n+]1ccc(C)cc1Sc1ccccc1C . Value?
[A] 109

[Q] Requested read-out: growth. Entry: O=C1c2cccnc2C(=O)c2c1c(C(=O)OCCCN1CCOCC1)c1ccccn21
[A] -3.63

[Q] Given CC(C)(C)c1cc(O)c(C(C)(C)C)cc1O , state its recorded growth.
[A] 35.1

[Q] // growth lookup, key: O=C(Nc1c(Cl)cc(Cl)cc1Cl)ON=C1CCCCC1
[A] 101

[Q] Value lookup for growth; key = Nc1ccc2c3c(cccc13)-c1ccccc1-2
[A] 4.53

[Q] Which growth reading was recorded for the molecule O=c1ccn(C2OC(F)(CO)C(O)C2F)c(=O)[nH]1 (configuration not stated) ?
[A] 114

[Q] # lookup: growth of COC(=O)c1nc(-c2ccc(C)cc2)oc1S(=O)(=O)c1ccc(Cl)cc1
[A] 51.8

[Q] Looking for the measured growth of FC(F)(F)c1ccc(/C=N/Nc2nnc3n2N=C(c2ccc(Cl)cc2)CS3)cc1 , can you help?
[A] 93.3

[Q] Query: growth; subject: N#CN1CCC[C@H]1C(=O)N1CCc2c(-c3[nH]nc4ncccc34)cccc21
[A] -30.7

[Q] Request the reported growth associated with O=C1/C=C/[C@@H](O)[C@@H]2C[C@@H](O)C[C@H]2/C=C/CCC[C@H](CCOCc2ccccc2)O1
[A] 0.107

[Q] Need growth, item O=C1Nc2ccccc2/C1=C/c1cccn1CCCCCCn1c2ccccc2c(=O)c2ccccc21
[A] 54.5

[Q] Consider the molecule COc1ccc(Nc2cc(C)nc(N3CCN(c4ccnc5cc(Cl)ccc45)CC3)n2)cc1 and give its measured growth.
[A] 2.43

[Q] Please look up its growth: C#CC[C@@H]1C[C@]2(C)[C@H]3CC[C@@H]4[C@H]5[C@H](C(=C)C)CC[C@]5(C(=O)O)CC[C@@]4(C)[C@]3(C)CC[C@H]2C(C)(C)[C@H]1O
[A] 44.2

[Q] Which measured growth value corresponds to COc1ccc(/C=N/C2=NNC(C)(c3ccccc3O)N2C(Cc2c[nH]c3ccccc23)C(=O)O)cc1 (configuration not stated) ?
[A] -21.9

[Q] # get_value(readout='growth', item= NS(=O)(=O)c1ccc(C(=O)NN2C(=O)c3ccccc3C2=O)cc1 )
[A] 103

[Q] For O=C(NCCNc1nccc(-c2c(-c3cccc(O)c3)nc3sccn23)n1)Nc1cccc(C(F)(F)F)c1 , what is its reported growth?
[A] 36.4

[Q] I am curious: what growth value has been reported for CCOC(=O)c1cc(C(=O)c2ccc(F)cc2F)n2ccccc12 ?
[A] 96.4

[Q] For the molecule Cc1cc(C(=O)CCCC(=O)c2cc(C)c(O)c(C)c2)cc(C)c1O , what growth is on record?
[A] 84.6

[Q] State the recorded growth for this entry: CC(C)N(CCOc1ccc(-c2nc3sccn3c2-c2ccnc(S(C)(=O)=O)n2)cc1)C(C)C
[A] 85.8

[Q] Could you share which growth value was measured for COc1cc(/C=C/C(=O)c2ccc(Nc3nc(Nc4ccccc4)nc(Nc4ccc(Cl)cc4)n3)cc2)cc(OC)c1OC ?
[A] 64.5

[Q] Form field: reported growth of NNc1ncnc2nc[nH]c12
[A] 35.3

[Q] Which growth is reported for this molecule? CCOC(=O)C(C(=O)OCC)C(c1ccccc1)N1CCN(c2ccccc2)CC1 (configuration not stated)
[A] 97.7

[Q] Sample COc1ccc(/C(=C/c2ccc3ccccc3c2)c2nn[nH]n2)cc1OC — what was its growth?
[A] -1.21

[Q] Look up growth: CC(C)C1=NOC(=O)C1=Cc1cn(-c2cccnc2)nc1-c1ccccc1
[A] -0.56

[Q] Entry under review: CC1CCN(Cc2ccc(NC(=O)c3cc4ccc5cccnc5c4[nH]3)cc2)CC1 . Reported growth?
[A] 11.5

[Q] Reported growth for Cc1nnc(/N=C2\NC(=O)/C(=C/C=C/c3ccccc3)S2)s1 : what is it?
[A] 75.3

[Q] Bench note: what growth did O=C(/C=C/c1cccc(Cl)c1Cl)Nc1ncc(Cc2ccccc2Cl)s1 show?
[A] -3.06

[Q] Query: growth; subject: COc1ccc(-c2nn(-c3cccc(Cl)c3)cc2-c2cc(-c3ccc(Br)cc3)nc(N)n2)cc1
[A] 88.4

[Q] Query (molecule): CC1(C)COB(OCC(C)(C)COB2OCC(C)(C)CO2)OC1 ; field requested: growth
[A] 101

[Q] Give the measured growth of CCCCN(CCCC)CCCn1c(-c2ccccc2)ccc1-c1ccccc1 .
[A] 61.6

[Q] Param item = CCOC(=O)c1ccc(C(=N)N)cc1 ; retrieve measured growth.
[A] 103

[Q] Which growth is reported for this molecule? CCOC(=O)Nc1nn[nH]n1
[A] 47.7

[Q] Param item = O=C(CS)OCC(COC(=O)CS)(COC(=O)CS)COC(=O)CS ; retrieve measured growth.
[A] 67.2

[Q] growth lookup needed for CC1(C)N=C(N)N=C(N)N1c1ccc(CCCCc2ccc(S(=O)(=O)F)cc2)c(Cl)c1 , thanks.
[A] 19.2

[Q] Entry under review: Cn1cc(-c2csc(-c3cn(CCN)c4ccc(Br)cc34)n2)c2cccnc21 . Reported growth?
[A] 41

[Q] Bench note: what growth did Cc1ccc(S(=O)(=O)N2CCC(C(=O)Nc3ccc(F)cc3F)CC2)cc1 show?
[A] 88.2

[Q] // lookup growth for O=c1[nH]n(-c2ccccc2)c(=O)cc1Cl
[A] 103
